Entries and their cell viability values follow.
Test system: HCI13 (cells of an ER-positive luminal breast cancer xenograft);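 note: PDX cells carrying CMV promoter-driven luciferase, viability read as total photon flux per second by IVIS imaging following D-luciferin, vehicle control 0.1% DMSO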
Assay: cell viability (% of vehicle); higher = less cytotoxic
Details: 10 µM; 72 h
// keep it numeric: no unit symbol after the value

> print(dat)
                                   compound  value.reported
1      Cl.Cl.NCCc1cnc[nH]1 [Histamine 2HCl]             124
2  COc1cc(C(C)=O)ccc1OCCCN1CCC(c2noc3cc(F)ccc23)CC1 [Iloperidone]             121
3  Cn1c(=O)cc(N2CCCC(N)C2)n(Cc2ccccc2C#N)c1=O (centres undefined) [Alogliptin (SYR-322)]             115

Lookup result for CS(=O)(=O)c1ccc(C(O)C(CO)NC(=O)C(Cl)Cl)cc1 (centres undefined) [Thiamphenicol] ; measured cell viability: 64.4

Lookup result for Cn1c(=O)c2c(ncn2CC2OCCO2)n(C)c1=O [Doxofylline] ; measured cell viability: 82.8
